- studySystem: human FXR alpha ligand binding domain (Homo sapiens (Human), UniProt Q96RI1)
- Sequence (Q96RI1 other isoform, or with tags, fused parts or gaps): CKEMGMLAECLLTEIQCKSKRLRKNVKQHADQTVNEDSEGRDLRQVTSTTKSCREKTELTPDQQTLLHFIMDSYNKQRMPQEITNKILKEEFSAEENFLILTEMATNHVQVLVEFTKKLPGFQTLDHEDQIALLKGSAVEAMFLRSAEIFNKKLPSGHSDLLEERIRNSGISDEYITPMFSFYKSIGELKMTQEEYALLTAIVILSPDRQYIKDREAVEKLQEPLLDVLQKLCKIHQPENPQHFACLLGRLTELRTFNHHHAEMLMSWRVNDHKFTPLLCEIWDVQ
- assay: FRET activity assay (LANCE; ligand mediated FXR-LBD / SRC-1 cofactor peptide interaction)
- Format: biochemical
- testConditions: GST-FXR-LBD, biotinylated SRC-1 peptide 676-700; read-out: FRET EC50
quantityName: EC50 (nM)
Write the value in nM as a bare number.

Worked cases, answers included:
- chemSmiles: "Cc1cc(Cl)c(-c2noc(C3CC3)c2COc2ccc(C3(O)CN(c4ncc(C(=O)O)cc4F)C3)c(Cl)c2)c(Cl)c1"
  studySystem: "human FXR alpha ligand binding domain (Homo sapiens (Human), UniProt Q96RI1)"
  EC50 [nM]: 57
- chemSmiles: "Cc1cc(C(=O)O)cnc1N1CC(O)(c2ccc(OCc3c(-c4c(Cl)cccc4Cl)noc3C3CC3)cc2Cl)C1"
  studySystem: "human FXR alpha ligand binding domain (Homo sapiens (Human), UniProt Q96RI1)"
  EC50 [nM]: 3.9

Read the next record carefully.
Exam item: Look up EC50 for this molecule: O=C(O)c1ccc(N2CC(O)(c3ccc(OCc4c(-c5c(Cl)cccc5Cl)noc4C4CC4)cc3Cl)C2)nc1
Marked response: 2.6
